Experiment: Inhibition of binding of [125I]-CCK-8 to the cholecystokinin type B receptor
reported_metric: IC50 (nM)
Express it in nM; write the number only.

Completed entries (count: 4):
COc1cccc(NC(=O)NC2N=C(c3ccccc3)c3ccccc3N(CCN(C)C)C2=O)c1 (stereo not drawn) : 192
CCN(CC)CC(=O)OCCN1C(=O)C(NC(=O)Nc2cccc(C)c2)N=C(c2ccccc2)c2ccccc21 (stereo not drawn) : 5.6
CN1C(=O)C(NC(=O)Nc2ccc3c(c2)OCO3)N=C(c2ccccc2)c2ccccc21 (stereo not drawn) : 26
COC(=O)Cc1cccc(NC(=O)NC2N=C(c3ccccc3)c3ccccc3N(C)C2=O)c1 (stereo not drawn) : 33

Any idea what IC50 was measured for CCN(CC)C(=O)CN1C(=O)C(NC(=O)Nc2cccc(OC)c2)N=C(c2ccccc2)c2ccccc21 (stereo not drawn) ?
0.22

Which IC50 reading was recorded for the molecule Cc1cccc(NC(=O)NC2N=C(c3ccccc3)c3ccccc3N(CC(=O)N3CC[N+](C)(C)CC3)C2=O)c1 (stereo not drawn) ?
58
